- system-name: RORγ LBD (Homo sapiens, UniProt P51449)
- Sequence (P51449 269-508 limits assumed): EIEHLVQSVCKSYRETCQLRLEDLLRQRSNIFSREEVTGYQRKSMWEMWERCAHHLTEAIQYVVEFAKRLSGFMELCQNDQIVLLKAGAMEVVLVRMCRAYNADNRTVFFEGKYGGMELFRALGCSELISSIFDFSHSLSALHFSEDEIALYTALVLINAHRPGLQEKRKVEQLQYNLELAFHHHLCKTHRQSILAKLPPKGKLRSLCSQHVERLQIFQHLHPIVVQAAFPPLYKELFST
readout-kind: IC50

Examples with their reported IC50 follow.
{"compound": "OC(c1ccc(CN2CCCc3cc(-c4cn[nH]c4)ccc32)cc1)(C(F)(F)F)C(F)(F)F [Example 2]", "system-name": "RORγ LBD (Homo sapiens, UniProt P51449)", "readout-kind": "IC50", "value-reported": "> 10 µM"}
{"compound": "O=C1CCc2cc(-c3cn[nH]c3)ccc2N1Cc1ccc(C(O)(C(F)(F)F)C(F)(F)F)cc1 [Example 5]", "system-name": "RORγ LBD (Homo sapiens, UniProt P51449)", "readout-kind": "IC50", "value-reported": "> 10 µM"}
{"compound": "Cc1n[nH]c(-c2ccc3c(c2)CCC(=O)N3Cc2ccc(C(O)(C(F)(F)F)C(F)(F)F)cc2)n1 [Example 6]", "system-name": "RORγ LBD (Homo sapiens, UniProt P51449)", "readout-kind": "IC50", "value-reported": "> 10 µM"}

Could you now look at the following compound, please?
q: Reported IC50, compound Cc1n[nH]c(-c2ccc3c(c2)CCCN3Cc2ccc(C(O)(C(F)(F)F)C(F)(F)F)cc2)n1 [Example 3] : ____
a: > 10 µM
